Tested on: SF-268 CNS
Method Summary: NCI tumour cell line growth inhibition, 48 h
Listed here: items and their measured TGI.
Property: TGI

[
  {
    "Compound": "O=c1[nH]c2cccccc-2c1-c1nc2ccccc2[nH]1",
    "Property": "TGI",
    "Observed Measurement": "45.3 µM"
  },
  {
    "Compound": "C#Cc1cccc(NC(=O)Nc2cccc(NC(=O)CCl)c2)c1",
    "Property": "TGI",
    "Observed Measurement": "> 82.5 µM"
  },
  {
    "Compound": "CC1SC(c2cccc(Oc3ccccc3)c2)N(CCc2cccs2)C1=O (stereo not given)",
    "Property": "TGI",
    "Observed Measurement": "3.6 µM"
  },
  {
    "Compound": "COc1ccc(N=Nc2ccc3oc(=O)c(C(=O)Nc4ccc(OC)cc4)cc3c2)cc1",
    "Property": "TGI",
    "Observed Measurement": "48.8 µM"
  },
  {
    "Compound": "COC(=O)[C@@H](C)C[C@H](Cc1ccccc1)NC(=O)c1cccc([C@@H](C[C@H](C(C)C)N(C)C(=O)[C@@H](NC(=O)[C@H]2CCCCN2C)C(C)C)OC(C)=O)n1",
    "Property": "TGI",
    "Observed Measurement": "> 16.7 µM"
  }
]

----------
Tested on: M14 melanoma
Method Summary: NCI tumour cell line growth inhibition, 48 h
Listed here: items and their measured TGI.

[
  {
    "Compound": "C=C1C(=O)O[C@H]2[C@H]1CC/C(Cn1cc(CNC(=O)c3cc4ccccc4[nH]3)nn1)=C\\CC[C@@]1(C)O[C@@H]21",
    "Operator Symbol": "=",
    "TGI [µM]": 6.27
  },
  {
    "Compound": "CC1SC(c2cccc(Oc3ccccc3)c2)N(CCc2cccs2)C1=O (configuration not stated)",
    "Operator Symbol": "=",
    "TGI [µM]": 2.34
  },
  {
    "Compound": "NC(=O)NOCC1NC(=O)NC1=O (configuration not stated)",
    "Operator Symbol": ">",
    "TGI [µM]": 100
  },
  {
    "Compound": "O=C(CSCC(=O)N/N=C\\c1cc(Br)cc(Br)c1O)N/N=C\\c1cc(Br)cc(Br)c1O",
    "Operator Symbol": "=",
    "TGI [µM]": 34.8
  },
  {
    "Compound": "C#Cc1cccc(NC(=O)Nc2cccc(NC(=O)CCl)c2)c1",
    "Operator Symbol": ">",
    "TGI [µM]": 82.5
  },
  {
    "Compound": "COc1c(-c2ccc3c(c2)OCO3)oc2cc3c(c(OC)c2c1=O)OCO3",
    "Operator Symbol": ">",
    "TGI [µM]": 100
  },
  {
    "Compound": "CNCc1ccc(C)c(NC(=O)c2ccc(Nc3nc(-c4ccccc4)c4ccccc4n3)cc2)c1",
    "Operator Symbol": "=",
    "TGI [µM]": 3.4
  },
  {
    "Compound": "S=C(N/N=C/c1ccccc1)NC1CC(c2ccccc2)Oc2ccccc21 (configuration not stated)",
    "Operator Symbol": ">",
    "TGI [µM]": 100
  },
  {
    "Compound": "O=c1[nH]c2cccccc-2c1-c1nc2ccccc2[nH]1",
    "Operator Symbol": ">",
    "TGI [µM]": 100
  },
  {
    "Compound": "O=C(N/N=C/c1cc(-c2ccccc2Cl)c(-c2ccccc2Cl)o1)c1ccncc1",
    "Operator Symbol": ">",
    "TGI [µM]": 100
  },
  {
    "Compound": "O=C1c2cccc3cc4ccccc4c(c23)C(=O)N1CCCNCCNCCCN1C(=O)c2cccc3cc4ccccc4c(c23)C1=O",
    "Operator Symbol": "=",
    "TGI [µM]": 2.21
  },
  {
    "Compound": "O=C(Cl)c1cc([N+](=O)[O-])cc([N+](=O)[O-])c1",
    "Operator Symbol": ">",
    "TGI [µM]": 100
  },
  {
    "Compound": "CCN1CCc2sc3[nH]c(=S)n(C)c(=O)c3c2C1",
    "Operator Symbol": ">",
    "TGI [µM]": 100
  },
  {
    "Compound": "C=C(Cl)C(Cl)(CBr)CCC(Cl)C(C)C (configuration not stated)",
    "Operator Symbol": "=",
    "TGI [µM]": 42.6
  },
  {
    "Compound": "CCC(c1ccc(N(C)C)cc1)C1NC(=S)NC1=O (configuration not stated)",
    "Operator Symbol": ">",
    "TGI [µM]": 100
  },
  {
    "Compound": "O=C(C(Cl)=C(Nc1ccccc1)Nc1ccccc1)C(Cl)Cl",
    "Operator Symbol": "=",
    "TGI [µM]": 43.8
  },
  {
    "Compound": "COc1ccc2c(c1)CCC1C2CCC2(C)C1CC[C@@]2(O)CNC(=O)/C=C/c1ccc(O)c(O)c1 (some centres not stated)",
    "Operator Symbol": "=",
    "TGI [µM]": 7.42
  },
  {
    "Compound": "COc1ccc(/C=N/NC(=O)c2ccccc2Nc2ccccc2C(=O)N/N=C/c2ccc(OC)c(OC)c2)cc1OC",
    "Operator Symbol": ">",
    "TGI [µM]": 100
  },
  {
    "Compound": "CCCCCC1C2C(=O)NC(=O)C1C(=O)NC2=O (configuration not stated)",
    "Operator Symbol": ">",
    "TGI [µM]": 100
  },
  {
    "Compound": "Cc1nc2c(=O)n(C)c(=O)nc-2n(-c2ccc(Cl)cc2)c1C",
    "Operator Symbol": ">",
    "TGI [µM]": 100
  },
  {
    "Compound": "O=C(/C=C\\c1ccc(Cl)c(Cl)c1)c1ccccc1",
    "Operator Symbol": "=",
    "TGI [µM]": 21.5
  },
  {
    "Compound": "CCOC(=O)C(Cc1ccc(N(CCCl)CCCl)cc1)NC(=O)C(CC(C)C)NC(C)=O (configuration not stated)",
    "Operator Symbol": "=",
    "TGI [µM]": 2.19
  },
  {
    "Compound": "COc1ccc2nccc(C3OC(=O)N4CCC(=O)CC34)c2c1 (configuration not stated)",
    "Operator Symbol": ">",
    "TGI [µM]": 100
  },
  {
    "Compound": "CCN(CC)CCCC(C)NC(=S)N/N=C(\\C)c1ccccn1 (configuration not stated)",
    "Operator Symbol": "=",
    "TGI [µM]": 17.8
  },
  {
    "Compound": "NCCN.O=N[O-].O=N[O-].O=N[O-].O=N[O-].[Co+3].[K+]",
    "Operator Symbol": ">",
    "TGI [µM]": 100
  },
  {
    "Compound": "C[N+](C)([O-])Cc1cccc(NC(=O)c2ccc(C(=O)Nc3cccc(C[N+](C)(C)[O-])c3)cc2)c1",
    "Operator Symbol": ">",
    "TGI [µM]": 100
  },
  {
    "Compound": "C[As](C)SCC(COC(=O)c1ccccc1)OC(=O)c1ccccc1 (configuration not stated)",
    "Operator Symbol": "=",
    "TGI [µM]": 1.86
  },
  {
    "Compound": "COc1cccc(C(=O)C(O)c2cccc(OC)c2OC)c1OC (configuration not stated)",
    "Operator Symbol": ">",
    "TGI [µM]": 100
  },
  {
    "Compound": "CN(C)CCCn1c2c(c3ccncc3c1=O)C(=O)c1ccccc1-2",
    "Operator Symbol": "=",
    "TGI [µM]": 5.71
  },
  {
    "Compound": "Cc1cn2cc(-c3ccncc3)nc2s1",
    "Operator Symbol": ">",
    "TGI [µM]": 100
  },
  {
    "Compound": "CC1=C2CC3=C(C)C(=O)O[C@H]3C[C@@H](C)[C@@H]2CC1",
    "Operator Symbol": ">",
    "TGI [µM]": 100
  },
  {
    "Compound": "C=CC(C)(C)c1cc([C@@H]2COc3cc(O)ccc3C2=O)c(O)c(OC)c1OC",
    "Operator Symbol": "=",
    "TGI [µM]": 31.2
  },
  {
    "Compound": "Nc1c2ccccc2nc2ccc(C(=O)Nc3ccc(S(N)(=O)=O)cc3)cc12",
    "Operator Symbol": ">",
    "TGI [µM]": 100
  },
  {
    "Compound": "O=C(Cc1nc2ccccc2s1)C(=O)Nc1ccccc1C(F)(F)F",
    "Operator Symbol": ">",
    "TGI [µM]": 100
  },
  {
    "Compound": "COC(=O)C1CCC2(CC1)NC(=O)NC2=O (configuration not stated)",
    "Operator Symbol": ">",
    "TGI [µM]": 100
  },
  {
    "Compound": "CCO/C=N/C1=C(C#N)C(c2ccc(OC)c(OC)c2)c2c(-c3ccccc3)nn(-c3ccccc3)c2O1 (configuration not stated)",
    "Operator Symbol": "=",
    "TGI [µM]": 60
  },
  {
    "Compound": "Nc1cc(N)c2nc(-c3ccccc3)c(Sc3ccc(F)cc3)nc2c1",
    "Operator Symbol": "=",
    "TGI [µM]": 30.8
  },
  {
    "Compound": "CC(C)NC(=O)OCc1c(COC(=O)NC(C)C)c(-c2ccc[n+](COC(=O)C3CCCCC3)c2)n2c1CCC2",
    "Operator Symbol": ">",
    "TGI [µM]": 100
  },
  {
    "Compound": "CC1=CC(=O)C[C@]2(C)[C@@H](O)CC(C(C)CO)C[C@@H]12 (some centres not stated)",
    "Operator Symbol": ">",
    "TGI [µM]": 100
  },
  {
    "Compound": "COc1cc(/C=C/C(=O)C(C)(C)C)cc(OC)c1OC",
    "Operator Symbol": ">",
    "TGI [µM]": 100
  },
  {
    "Compound": "COC(=O)[C@@H](C)C[C@H](Cc1ccccc1)NC(=O)c1cccc([C@@H](C[C@H](C(C)C)N(C)C(=O)[C@@H](NC(=O)[C@H]2CCCCN2C)C(C)C)OC(C)=O)n1",
    "Operator Symbol": "=",
    "TGI [µM]": 0.224
  },
  {
    "Compound": "Cn1c(N)cc(=O)nc1N",
    "Operator Symbol": ">",
    "TGI [µM]": 100
  }
]
